system: U2OS; experiment: Multiplex assay against U2OS; format: toxicity, cell-based; conditions: human, 12 h, 1 µM, compound concentration 1 uM
Parameter Population Tubulin-Different-Phenotype (%): see the listing below.
Report only the number, with the unit % understood.

cpd.smiles	measurement.target	reported.measurement
Cc1cc(NC(=O)NCCN2CCC(O)(Cc3ccccc3)CC2)c2ccccc2n1	U2OS	1
CN1CC[C@@]23CCCC[C@@H]2[C@@H]1Cc1ccc(O)cc13.O=C(O)C(O)C(O)C(=O)O	U2OS	0
Cc1cccc(NC(=O)CN2CCC(c3ccccn3)CC2)c1.Cl.Cl	U2OS	3
C[C@H](NC(=O)CNC(=O)c1cccc(Cl)c1)c1ccccc1	U2OS	2
O=c1nc2[nH]c3ccccc3nc-2c(=O)[nH]1	U2OS	3

Please look up its Population Tubulin-Different-Phenotype (%): Cc1cc(=O)n(C)c2cc(N3C(=O)CC[C@H](NS(=O)(=O)CC(C)C)[C@H]3c3ccc(Cl)cc3)ccc12
1

Please look up its Population Tubulin-Different-Phenotype (%): COC(c1ccccc1)(c1ccccc1)[C@H](Oc1nc(C)cc(C)n1)C(=O)O
1

* * *

test system: U2OS; experiment: Multiplex assay against U2OS; format: toxicity, cell-based; conditions: human, 48 h, 1 µM, compound concentration 1 uM
reported.property: Population Hoechst High Intensity Objects (%)
Please state the number and follow it with the unit.

Check out these entries, answers already filled in.
compound	measurement.target	reported.measurement
Cc1c(C(=O)NCCCN(C)C)sc2ncnc(Nc3ccc(F)cc3OC(C)CF)c12 (configuration not stated)	U2OS	0%
Cc1c(-c2cc(-c3ccccc3Cl)no2)cnn1C1CCNCC1.Cl	U2OS	0%
CCn1c(-c2nonc2N)nc2c(C#CC(C)(C)O)ncc(OCC3CCCNC3)c21 (configuration not stated)	U2OS	0%

Please look up its Population Hoechst High Intensity Objects (%): COc1cc(OC2CCN(C(C)=O)CC2)ccc1C(=O)N1CCC(N2C(=O)OCc3ccccc32)CC1
3%

Please look up its Population Hoechst High Intensity Objects (%): CC(C)(C)c1cc(C(C)(C)C)c(NC(=O)c2c[nH]c3ccccc3c2=O)cc1O [IVACAFTOR]
0%

Please look up its Population Hoechst High Intensity Objects (%): CC(N)C1CCC(C(=O)Nc2ccncc2)CC1 (configuration not stated)
0%

Please look up its Population Hoechst High Intensity Objects (%): NC1=NC(=O)/C(=C2\CCNC(=O)c3[nH]c4ccccc4c32)N1
0%

* * *

Parameter Population Normal (%): see the listing below.
tested on: HEK-293T; test: Multiplex assay against HEK293T; type: toxicity, cell-based; settings: human, 24 h, 1 µM, compound concentration 1 uM
Report only the number, with the unit % understood.

Please look up its Population Normal (%): NC1=NC(=O)/C(=C2\CCNC(=O)c3[nH]c4ccccc4c32)N1
100

Please look up its Population Normal (%): CC(C)(C)c1cc(C(C)(C)C)c(NC(=O)c2c[nH]c3ccccc3c2=O)cc1O
100

Please look up its Population Normal (%): CC(C)[C@H](C(=O)Nc1ccc(C(=O)NO)cc1)c1ccccc1
100

* * *

tested on: HEK-293T; test: Multiplex assay against HEK293T; type: toxicity, cell-based; settings: human, 12 h, 1 µM, compound concentration 1 uM
Parameter Population Fragmented Nuclei (%): see the listing below.

molecule	Population Fragmented Nuclei (%)
COC(c1ccccc1)(c1ccccc1)[C@H](Oc1nc(C)cc(C)n1)C(=O)O [AMBRISENTAN]	7%
C[C@H](NC(=O)c1c(C(F)F)nn(C)c1Oc1cccc(C(F)(F)F)c1)c1ccc(C(=O)O)cc1 [PALUPIPRANT]	6%
COc1cc(OC2CCN(C(C)=O)CC2)ccc1C(=O)N1CCC(N2C(=O)OCc3ccccc32)CC1	5%

Fill in the recorded Population Fragmented Nuclei (%) for this molecule, with HEK-293T as test system: CC(C)(C)c1cc(NC(=O)Nc2ccc(-c3cn4c(n3)sc3cc(OCCN5CCOCC5)ccc34)cc2)no1 [QUIZARTINIB]
5%

Fill in the recorded Population Fragmented Nuclei (%) for this molecule, with HEK-293T as test system: Cc1cnc(-c2cc(N3CCN(C(=O)CCS(C)(=O)=O)CC3)ncc2Cl)c(C)c1
6%
